TARGET_OR_SYSTEM: GAPDH (Bos taurus, UniProt P10096)
Construct: from tissue; host or cells: bovine brain homogenate
Sequence (P10096 2-333): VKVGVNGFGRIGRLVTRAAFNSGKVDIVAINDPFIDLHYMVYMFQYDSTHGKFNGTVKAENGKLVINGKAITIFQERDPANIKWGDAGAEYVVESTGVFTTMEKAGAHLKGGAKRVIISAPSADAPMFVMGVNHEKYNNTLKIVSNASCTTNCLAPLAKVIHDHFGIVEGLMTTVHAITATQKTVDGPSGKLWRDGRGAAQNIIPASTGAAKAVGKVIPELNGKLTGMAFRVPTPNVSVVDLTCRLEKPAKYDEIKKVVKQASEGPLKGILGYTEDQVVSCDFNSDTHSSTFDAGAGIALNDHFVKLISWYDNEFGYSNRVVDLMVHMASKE
TEST_PROTOCOL: Affinity chromatography with drug-alkylated dsDNA resin in bovine brain lysate (GAPDH)
Type: binding
RUN_PARAMETERS: ds-oligonucleotide resin alkylated with drug; bovine brain lysate, 4° C.; silver-stained SDS-PAGE
OBSERVED_PROPERTY: binding of 37-kDa protein (GAPDH) to drug-dsDNA binary complex

MOLECULE	MEASURED
COC1=C(C)C(=O)C2=C(C1=O)[C@@H]1[C@@H]3CC4=C(C(=O)C(OC)=C(C)C4=O)[C@H](CNC(=O)C(C)=O)N3[C@@H](C#N)[C@H](C2)N1C [(−)-Saframycin A]	bind specifically
N.N.[Cl][Pt][Cl] [cisplatin]	did not bind
N.N.[Cl][Pt+2][Cl] [transplatin]	did not bind
COc1c(C)cc2c(c1O)[C@@H]1[C@@H]3Cc4c(OC(C)=O)c(C)c5c(c4[C@H](CN4C(=O)c6ccccc6C4=O)N3[C@@H](C#N)[C@H](C2)N1C)OCO5	bind specifically
